The reported numbers originate from paper PMC6285983.

- System: VSV
- assay_info: microbe, parasite or virus in culture
- Format: cell-based
- measurement_parameters: Vesicular stomatitis virus, read-out: EC50 (95% C.I.)
measurement_kind: pEC50
# log scale: pEC50 equals minus log10 of the concentration in mol/L

Recorded pEC50 of CC(C)c1ccc(CCN2C(=O)/C(=C/c3ccc(-c4ccc(C(=O)O)c(O)c4)o3)SC2=S)cc1 , please. 7.88

====

- assay_info: Cell viability MTS assay on Vero cells
- measurement_parameters: African green monkey, CC50, conditions of ZIKAV assay
measurement_kind: CC50 (µM)
The reply should be a number in µM, with the unit left off.

Recorded CC50 of CC(C)c1ccc(CCN2C(=O)/C(=C/c3ccc(-c4ccc(C(=O)O)c(O)c4)o3)SC2=S)cc1 , please. 8.85

====

- assay_info: Cell viability MTS assay, conditions of the HRoV assay
- Assay type: cell-based
- measurement_parameters: African green monkey, MA104 cells
measurement_kind: CC50 at 1 h
Answers without a unit are incomplete; give the number and then its unit.

Recorded CC50 at 1 h of CC(C)c1ccc(CCN2C(=O)/C(=C/c3ccc(-c4ccc(C(=O)O)c(O)c4)o3)SC2=S)cc1 , please. 156 µM

====

- assay_info: Cell viability MTS assay on Vero cells
- measurement_parameters: African green monkey, CC50, conditions of HSV-1 assay
measurement_kind: CC50

Recorded CC50 of CC(C)c1ccc(CCN2C(=O)/C(=C/c3ccc(-c4ccc(C(=O)O)c(O)c4)o3)SC2=S)cc1 , please. 2090 nM

====

- System: HSV-1
- assay_info: HSV-1 plaquing efficiency assay
- Assay type: cell-based
- measurement_parameters: Human alphaherpesvirus 1, read-out: EC50 (95% C.I.)
measurement_kind: EC50 (nM)
The reply should be a number in nM, with the unit left off.

Recorded EC50 of CC(C)c1ccc(CCN2C(=O)/C(=C/c3ccc(-c4ccc(C(=O)O)c(O)c4)o3)SC2=S)cc1 , please. 2.18

====

- assay_info: Cell viability MTS assay on Vero cells
- measurement_parameters: African green monkey, CC50, Vero cells, MTS
Consider the following compounds; for each one, report its CC50.
The reply should be a number in µM, with the unit left off.

Recorded CC50 of CC(C)c1ccc(CCN2C(=O)/C(=C/c3ccc(-c4ccc(C(=O)O)c(O)c4)o3)SC2=S)cc1 , please. 2.09

// query: COc1ccc(CCN2C(=O)/C(=C/c3ccc(-c4ccc(C(=O)O)c(O)c4)o3)SC2=S)cc1 9.87

// query: O=C(O)c1ccc(-c2ccc(/C=C3\SC(=S)N(CCc4ccc(Br)cc4)C3=O)o2)cc1O 13.5

// query: O=C(O)c1ccc(-c2ccc(/C=C3\SC(=S)N(CCc4c[nH]c5ccccc45)C3=O)o2)cc1O 291

====

measurement_kind: melting point

Recorded melting point of O=C(O)c1ccc(-c2ccc(/C=C3\SC(=S)N(CCc4ccc(Br)cc4)C3=O)o2)cc1O , please. 275 °C (dec.)

// query: COc1ccc(CCN2C(=O)/C(=C/c3ccc(-c4ccc(C(=O)O)c(O)c4)o3)SC2=S)cc1 265 °C (dec.)

// query: CC(C)c1ccc(CCN2C(=O)/C(=C/c3ccc(-c4ccc(C(=O)O)c(O)c4)o3)SC2=S)cc1 259 °C (dec.)

// query: O=C(O)c1ccc(-c2ccc(/C=C3\SC(=S)N(CCc4c[nH]c5ccccc45)C3=O)o2)cc1O 254 °C (dec.)

====

- assay_info: Cell viability MTS assay, conditions of the HCMV assay
- Assay type: cell-based
- measurement_parameters: human, HELF cells
measurement_kind: CC50 at 3 h (µM)
The reply should be a number in µM, with the unit left off.

Recorded CC50 at 3 h of CC(C)c1ccc(CCN2C(=O)/C(=C/c3ccc(-c4ccc(C(=O)O)c(O)c4)o3)SC2=S)cc1 , please. 5.24

====

- assay_info: Cell viability MTS assay on Vero cells
- measurement_parameters: African green monkey, CC50, Vero cells, after 96h exposure
measurement_kind: CC50 at 96 h (nM)
The reply should be a number in nM, with the unit left off.

Recorded CC50 at 96 h of CC(C)c1ccc(CCN2C(=O)/C(=C/c3ccc(-c4ccc(C(=O)O)c(O)c4)o3)SC2=S)cc1 [Compound 9d] , please. 2090
